Test system: Vero E6 infected with SARS-CoV-2
Assay: inhibition of SARS-CoV-2 cytopathic effect; higher = more antiviral protection, active = above 15
Conditions: 10000 nM; 48 h
Reported inhibition of SARS-CoV-2 cytopathic effect values follow for various molecules
value-type: inhibition of SARS-CoV-2 cytopathic effect (%)

molecule	numeric-readout
CNC[C@H](O)[C@@H](O)[C@H](O)[C@H](O)CO [meglumine]	-10.1
C/C(=N\c1ccccc1N)c1c(C)cc(=O)n(O)c1O	1.35
N[C@@H]1CCCN(c2c(/C=C3\SC(=O)NC3=O)cccc2-c2ccccc2)C1	0
COC(=O)Nc1nc2cc(C(=O)c3ccc(F)cc3)ccc2[nH]1 [flubendazole]	-2.34
CNCC[C@@H](Oc1ccccc1C)c1ccccc1 [atomoxetine]	-2.83
CCNC(=O)C#Cc1ccc2c(C(=Nc3ccc(CN(C)C)cc3)c3ccccc3)c(O)[nH]c2c1	-20.6
CC(C)(C)NS(=O)(=O)c1cncc(-c2cc(F)c3nc(N)nn3c2)c1	0.39
CCOC(=O)c1ccc(N(C)c2csc(-c3ccccc3)n2)cc1 [neuropathiazol]	2.67
COc1ccc(C(=O)NCc2ccc(OCCN(C)C)cc2)cc1OC [itopride]	0.72
C=C[C@@](C)(/C=C/c1ccc(O)cc1)CCC=C(C)C [bakuchiol]	0.79

====

Below, each of the compounds is paired with its reported inhibition of SARS-CoV-2 cytopathic effect value.
System: Vero E6 infected with SARS-CoV-2
Test: inhibition of SARS-CoV-2 cytopathic effect; higher = more antiviral protection, active = above 15
Details: 1 nM; 48 h
value-type: inhibition of SARS-CoV-2 cytopathic effect (%)

compound	numeric-readout
CNCc1ccc(-c2cc(-c3nc(-c4ccc(S(=O)(=O)C(C)C)cc4)cnc3N)on2)cc1	0.45
CC(CCc1ccccc1)NC(C)C(O)c1ccc(O)cc1 (stereo not drawn)	1.42
CC(=O)OC[C@H]1O[C@@H]([S-])[C@H](OC(C)=O)[C@@H](OC(C)=O)[C@@H]1OC(C)=O.CCP(CC)CC.[Au+]	3.21
CC(C)(C)Sc1c(CC(C)(C)C(=O)O)n(Cc2ccc(Cl)cc2)c2ccc(OCc3ccc4ccccc4n3)cc12	1.81
O=C(O)CCC(=O)OC[C@@H](NC(=O)C(Cl)Cl)[C@H](O)c1ccc([N+](=O)[O-])cc1 [chloramphenicol-sodium-succinate]	3.1
CCOc1ccc(Cc2cc([C@]34OC[C@](CO)(O3)[C@@H](O)[C@H](O)[C@H]4O)ccc2Cl)cc1	-4.37
CN1c2ccccc2C(NCCCCCCC(=O)O)c2ccc(Cl)cc2S1(=O)=O (stereo not drawn)	6.9
O=[N+]([O-])c1c(Nc2cc(F)cc(Cl)c2)ccc2nonc12	1.7

====

Test system: Vero E6 infected with SARS-CoV-2
Assay: inhibition of SARS-CoV-2 cytopathic effect; higher = more antiviral protection, active = above 15
Settings: 10000 nM; 48 h
value-type: inhibition of SARS-CoV-2 cytopathic effect (%)

compound	numeric-readout
CCCc1ccc(C(=O)O)cc1	1.58
CC1(CN)Cc2ccccc2C1	-3.29
COc1cccc(OCCCN)c1-c1cc(Nc2cnc(C#N)cn2)n[nH]1	-3.92
O=c1ccn([C@@H]2O[C@H](COP(=O)(O)OP(=O)(O)OP(=O)(O)O)[C@@H](O)[C@H]2O)c(=O)[nH]1	-0.735
CCCC[C@@H](NC(=O)[C@@H](Cc1cn(C(=O)OC)c2ccccc12)NC(=O)[C@H](CC(C)(C)C)NC(=O)N1[C@H](C)CCC[C@@H]1C)C(=O)O	1.29
Cn1cc(-c2ccc(F)c(C(F)(F)F)c2)nc1C1CCN(c2ncnc3[nH]ncc23)CC1	-3.92
N=C(N)NC(=O)c1nc(Cl)c(N)nc1N [amiloride]	3.14
c1cc2c3c(c1)c1c(n3CCNC2)CCCC1	-0.08
CNc1ncc2cc(-c3cc(NC(=O)NCCC(C)(C)C)c(F)cc3C)c(C)nc2n1	-8.15
CN(C)CC(=O)Nc1ccc2[nH]c(=O)c3ccccc3c2c1	6.44
O=C(O)c1ccc(N2N=C(Cc3ccccc3)/C(=C\c3ccc(-c4ccccc4F)o3)C2=O)cc1	-1.44
C=CCSCC1Nc2cc(Cl)c(S(N)(=O)=O)cc2S(=O)(=O)N1 (stereo unspecified) [althiazide]	0.04
Cc1cccc(C(C)c2c[nH]cn2)c1C (stereo unspecified)	-1.68
CCCCC1=NC2(CCCC2)C(=O)N1Cc1ccc(-c2ccccc2-c2nnn[nH]2)cc1	0.85
CC(=O)N[C@@H](CS)C(=O)O	3.74
O=C(OCC(O)CO)c1ccccc1Nc1ccnc2c(C(F)(F)F)cccc12 (stereo unspecified)	3.04
Cn1ncc(Cl)c1-c1cc(C(=O)N[C@H](CN)Cc2ccc(F)c(F)c2)oc1Cl	-3.53
O=C(O)c1cccnc1	4.53
C/C(=C\CNc1ncnc2[nH]cnc12)CO	-1.15
COc1cccc(C2(O)CCCCC2CN(C)C)c1 (stereo unspecified)	-5.31
Cc1ccc(C(=O)c2cc(O)c(O)c([N+](=O)[O-])c2)cc1	1.15

====

Tested on: Vero E6 infected with SARS-CoV-2
Assay: inhibition of SARS-CoV-2 cytopathic effect; higher = more antiviral protection, active = above 15
Conditions: 1 nM; 48 h
value-type: inhibition of SARS-CoV-2 cytopathic effect (%)

compound	unit-of-measurement	numeric-readout
COc1ccc(-c2cc(=O)c3c(O)c(OC)c(O)cc3o2)cc1OC	%	1.23
CC(C)C[C@H](NC(=O)OCc1ccccc1)C(=O)N[C@@H](C[C@@H]1CCNC1=O)C(O)S(=O)(=O)O (stereo not given in full) [GC376 sodium]	%	0.45
CC(C)(C)NCC(O)COc1cccc2[nH]c(=O)[nH]c12 (stereo not given)	%	-0.75
C=CC[C@]1(O)CC[C@H]2[C@@H]3CCC4=CCCC[C@@H]4[C@H]3CC[C@@]21C	%	-1.01
COc1cc(NS(=O)(=O)c2ccc(N)cc2)ncn1	%	0.65

====

Tested on: Vero E6 infected with SARS-CoV-2
Assay: morphology score (similarity to uninfected cells); higher = more like uninfected cells
Details: 24 h
value-type: morphology score

molecule	numeric-readout
Cc1onc(-c2ccccc2)c1-c1ccc(S(N)(=O)=O)cc1 [valdecoxib] (10 µM)	-0.0646
CC(=O)N1CCC(NC(=O)c2ccc(F)cc2)CC1 (10 µM)	0.0529
CN[C@@H]1[C@@H](O[C@H]2O[C@H](CO)[C@@H](N)[C@H](O)[C@H]2O)O[C@H]2C[C@@H](N)[C@@H](O[C@H]3[C@H](O)[C@@H](O)[C@H](N)C[C@@H]3N)O[C@@H]2[C@@H]1O [apramycin] (10 µM)	0.0655
CCOC(=O)c1ccc(N2NC(=O)/C(=C/c3ccc([N+](=O)[O-])o3)C2=O)cc1 (10 µM)	0.149
Cc1cc(SCc2sc(-c3ccc(C(F)(F)F)cc3)nc2C)ccc1OCC(=O)O (10 µM)	0.0978
CC1=C(C(=O)OC2CCCCC2)C(c2ccc([N+](=O)[O-])cc2)C2=C(CC(C)(C)CC2=O)N1 (configuration not stated) (0.833333 µM)	-0.0965
Cc1nc(-c2cn3c(n2)-c2ccc(-c4cnn(C(C)(C)C(N)=O)c4)cc2OCC3)n(C(C)C)n1 [taselisib] (0.833333 µM)	-0.0504
CC(C)COc1ccc(CNC(=O)N(Cc2ccc(F)cc2)C2CCN(C)CC2)cc1 [pimavanserin] (10 µM)	0.709
CCOC(=O)C1=C(C)NC(C)=C(C(=O)OCC)C1c1ccccc1/C=C/C(=O)OC(C)(C)C [lacidipine] (10 µM)	0.101
CCOc1ccc(Cc2cc([C@]34OC[C@](CO)(O3)[C@@H](O)[C@H](O)[C@H]4O)ccc2Cl)cc1 [ertugliflozin] (10 µM)	-0.0565
CC1(C)S[C@@H]2[C@H](NC(=O)[C@H](NC(=O)N3CCN(S(C)(=O)=O)C3=O)c3ccccc3)C(=O)N2[C@H]1C(=O)O [mezlocillin] (10 µM)	0.0709
O=C(Nc1nc2cccc(-c3ccc(CN4CCS(=O)(=O)CC4)cc3)n2n1)C1CC1 [filgotinib] (10 µM)	0.154
CCCC[C@@]1(C2CCCC2)Cc2cc(OCCCC(=O)O)c(Cl)c(Cl)c2C1=O (10 µM)	-0.08
CC(NC(C)(C)C)C(=O)c1cccc(Cl)c1 (configuration not stated) [bupropion] (10 µM)	0.00981
CCCCOc1nc(N)c2c(n1)N(Cc1cccc(CN3CCCC3)c1)CC(=O)N2 (10 µM)	-0.135
COc1cc(N)cn[n+]1-c1ccccc1 [amezinium] (10 µM)	0.0864
COc1ccc(CN(CCN(C)C)c2ncccn2)cc1 [thonzylamine] (10 µM)	0.0251
CNC(=O)[C@H](Cc1ccccc1)NC(=O)[C@H](CC(C)C)[C@H](CSc1cccs1)C(=O)NO [batimastat] (10 µM)	0.0292
C[C@@H]1CC[C@@]2(OC1)O[C@H]1C[C@H]3[C@@H]4CC=C5C[C@@H](O)CC[C@]5(C)[C@H]4CC[C@]3(C)[C@H]1[C@@H]2C [diosgenin] (10 µM)	0.114
CC(C)(C)NC[C@H](O)COc1nsnc1N1CCOCC1 [timolol] (10 µM)	-0.002
COC(=O)C(c1ccccc1)C1CCCCN1 (configuration not stated) (10 µM)	0.0486
NCCCC[C@H](NC(=O)[C@@H](Cc1cc(Br)c(O)c(Br)c1)NC(=O)N1CCC(N2Cc3ccccc3NC2=O)CC1)C(=O)N1CCN(c2ccncc2)CC1 (10 µM)	0.0352
O=[N+]([O-])c1cc([N+](=O)[O-])c(/C=C/c2ccc(Cl)c(Cl)c2)cc1/C=C/c1ccc(Cl)c(Cl)c1 (10 µM)	0.192
OCCCCO [1,4-butanediol] (10 µM)	0.0223
C[C@](N)(Cc1ccc(O)cc1)C(=O)O [metirosine] (10 µM)	-0.111
C=CC(=O)Nc1cccc(Nc2nc(Nc3ccc(Oc4ccnc(C(=O)NC)c4)cc3)ncc2F)c1 (0.833333 µM)	0.147
C=C1CC[C@@H]2[C@](C)(CO)[C@H](O)CC[C@@]2(C)[C@@H]1C/C=C1/C(=O)OC[C@H]1O [andrographolide] (0.833333 µM)	0.123
CC(=O)Nc1ccc(OCC(O)CNC(C)C)cc1 (configuration not stated) [practolol] (10 µM)	-0.0762
COc1cccc(Nc2c(C(N)=O)cnc3c(C)cc(S(=O)(=O)c4cccc(C(=O)N(C)C)c4)cc23)c1 (10 µM)	0.345
O=c1[nH]c(CCl)nc2sc3c(c12)CCCC3 (10 µM)	0.193
CCc1c(C(=O)C(N)=O)c2c(OCC(=O)O)cccc2n1Cc1ccccc1 [varespladib] (10 µM)	0.0669
CCn1c(=O)c(-c2cc[nH]n2)cc2c(C)nc(N)nc21 [voxtalisib] (0.833333 µM)	0.00591
